Tested on: CCRF-CEM
Procedure summary: In vitro cytotoxicity was determined against CCRF-CEM human leukemia cell line using NCI screen
Assay type: functional, cell-based

| Smiles entry | IC50 (nM) |
| --- | --- |
| O=[Se](=O)(CCCl)c1ccccc1 | 450 |

###

Tested on: SK-MES-1
Procedure summary: In vitro cytotoxicity was determined against SKMES human non-small cell lung carcinoma cell line using BACTEC screen
Assay type: functional, cell-based
pIC50: −log10 of the molar value.

| Smiles entry | pIC50 |
| --- | --- |
| O=[Se](=O)(CCCl)c1ccccc1 | 6.82 |

###

Tested on: M19-MEL
Procedure summary: In vitro cytotoxicity was determined against M19-MEL human melanoma cell line using NCI screen
Format: functional, cell-based
pIC50: −log10 of the molar value.
Observable: pIC50

| Smiles entry | Target | Val |
| --- | --- | --- |
| O=[Se](=O)(CCCl)c1ccccc1 | M19-MEL | 5.43 |

Reference source for all entries: ChEMBL document CHEMBL1124780
